Listed next: entries and their corresponding pKi.
- measuredTarget: T1, hCD71-Nluc fusion protein (human, UniProt P02786 1-760)
- T1 construct: whole, on cells; Used as crude membrane fractions of HEK293 cells stably expressing hCD71-Nluc; also called human transferrin receptor, CD71, fused to NanoLuc; not shown: NanoLuc (ProMega) luciferase joined through its N-terminal Val
- T1 sequence (P02786 other isoform, or with tags, fused parts or gaps): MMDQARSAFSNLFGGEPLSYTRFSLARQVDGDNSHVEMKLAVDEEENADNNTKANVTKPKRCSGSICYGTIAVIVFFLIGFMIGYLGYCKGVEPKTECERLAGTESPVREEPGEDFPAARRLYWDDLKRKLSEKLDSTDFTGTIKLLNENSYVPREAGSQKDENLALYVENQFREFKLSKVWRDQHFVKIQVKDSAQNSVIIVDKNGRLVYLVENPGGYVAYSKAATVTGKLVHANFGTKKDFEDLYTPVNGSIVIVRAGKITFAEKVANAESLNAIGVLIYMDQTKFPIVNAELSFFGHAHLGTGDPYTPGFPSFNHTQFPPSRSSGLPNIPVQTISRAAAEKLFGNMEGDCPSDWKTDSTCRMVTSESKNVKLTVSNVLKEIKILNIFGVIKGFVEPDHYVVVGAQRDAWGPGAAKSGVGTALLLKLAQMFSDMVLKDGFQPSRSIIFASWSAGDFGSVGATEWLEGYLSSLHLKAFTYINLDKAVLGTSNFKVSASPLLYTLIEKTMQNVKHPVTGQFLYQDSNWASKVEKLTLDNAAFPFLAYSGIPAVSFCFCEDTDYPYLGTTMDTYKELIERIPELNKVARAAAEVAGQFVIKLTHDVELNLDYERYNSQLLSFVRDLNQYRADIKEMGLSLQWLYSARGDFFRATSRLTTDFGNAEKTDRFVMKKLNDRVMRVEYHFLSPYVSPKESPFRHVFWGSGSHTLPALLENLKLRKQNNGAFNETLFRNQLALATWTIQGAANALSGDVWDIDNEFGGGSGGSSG
- methodSummary: nanoBRET competition, tracer BCY17871-1598988 60 nM, HEK293 hCD71-Nluc membranes
pKi: −log10 of the molar value. Starred links: 1 amine or outer side, 2 acyl side, 3 side chain; linkers in the order of their positions; H or OH if unused. Positions of bridges follow the written chain, without caps; N, C: chain ends. Non-standard residues stand in square brackets, D forms with d. TATB = O=C(C[*:1])N1CN(C(=O)C[*:2])CN(C(=O)C[*:3])C1; Lys(N3) = [N-]=[N+]=NCCCC[C@H](N)C(=O)O
parameter: pKi

[[record]]
binder = "CSPDAHLGCISYCX (not fully specified; as printed CSPDAHLGCISYC[K(N3)(PYA-Maleimide)]: N-terminal acetyl; C-terminal amide; three Cys bound to TATB scaffold; modified lysine [K(N3)(PYA-Maleimide)] at 14 joined to oligonucleotide 1614439 (5' 6-mercaptohexanol linker), the coupling chemistry of this pair is not spelled out; also called Compound No. 1614439 conjugated to BCY17906) [1614439-BCY17906]"
measurednumber = 8.70

[[record]]
binder = "Ac-CSPD[Lys(N3)]HLGCISYC-NH2 (linker 1-9-13 via TATB; not fully specified (residue 5); printed as CSPD[K(N3)]HLGCISYC; also: azide of K(N3) in loop clicked via BCN linker to oligonucleotide 1590463, also called Compound No. 1590463 conjugated to BCY17905) [1590463-BCY17905]"
measurednumber = 7.80

[[record]]
binder = "NWNCPXDAYLGCXSYCX (not fully specified; as printed NWNCP[HyP]DAYLGC[tBuGly]SYC[K(N3)]: N-terminal acetyl; C-terminal amide; three Cys bound to TATB scaffold; [HyP] 4-trans-hydroxy-L-proline at 6; [tBuGly] t-butyl glycine at 13; [K(N3)] 6-azido lysine at 17 joined via BCN linker to oligonucleotide 1590463, also called Compound No. 1590463 conjugated to BCY17899) [1590463-BCY17899]"
measurednumber = 9.00

[[record]]
binder = "CSPDAHLGCISYCEXWX (not fully specified; as printed CSPDAHLGCISYCE[Aze]W[K(N3)]: N-terminal acetyl; C-terminal amide; three Cys bound to TATB scaffold; [Aze] azetidine at 15; [K(N3)] 6-azido lysine at 17 joined via BCN linker to oligonucleotide 1590463, also called Compound No. 1590463 conjugated to BCY17892) [1590463-BCY17892]"
measurednumber = 9.00

[[record]]
binder = "CSPDAHLGCISYCEPWX (not fully specified; as printed CSPDAHLGCISYCEPW[K(N3)]: N-terminal acetyl; C-terminal amide; three Cys bound to TATB scaffold; [K(N3)] 6-azido lysine at 17 joined via BCN linker to oligonucleotide 1590463, also called Compound No. 1590463 conjugated to BCY17873) [1590463-BCY17873]"
measurednumber = 9.00

[[record]]
binder = "CSPDAHLGCISYCEPWX (as printed CSPDAHLGCISYCEPW[K(N3)]: N-terminal acetyl; C-terminal amide; three Cys bound to TATB scaffold; [K(N3)] 6-azido lysine at 17 joined to oligonucleotide 1602000 ([PEG1alkyne] linker), also called Compound No. 1602000 conjugated to BCY17873) [1602000-BCY17873]"
measurednumber = 9.00

